Where a SMILES comes first, the peptide text is derived from it.
REPORTED_PROPERTY: main degradation step of free peptide (°C)
Field format: number, assumed °C, no unit text.

-- ask Reported main degradation step of free peptide for CC(C)[C@H](NC(=O)[C@@H]1CCCN1C(=O)[C@H](C)NC(=O)[C@H](C)N)C(=O)O (H-AAPV-OH) : what is it?
-- reply 200
